These measurements were taken from paper PMC9610298.

SYSTEM UNDER TEST: recombinant human AChE (Homo sapiens)
Sequence (P22303 32-614): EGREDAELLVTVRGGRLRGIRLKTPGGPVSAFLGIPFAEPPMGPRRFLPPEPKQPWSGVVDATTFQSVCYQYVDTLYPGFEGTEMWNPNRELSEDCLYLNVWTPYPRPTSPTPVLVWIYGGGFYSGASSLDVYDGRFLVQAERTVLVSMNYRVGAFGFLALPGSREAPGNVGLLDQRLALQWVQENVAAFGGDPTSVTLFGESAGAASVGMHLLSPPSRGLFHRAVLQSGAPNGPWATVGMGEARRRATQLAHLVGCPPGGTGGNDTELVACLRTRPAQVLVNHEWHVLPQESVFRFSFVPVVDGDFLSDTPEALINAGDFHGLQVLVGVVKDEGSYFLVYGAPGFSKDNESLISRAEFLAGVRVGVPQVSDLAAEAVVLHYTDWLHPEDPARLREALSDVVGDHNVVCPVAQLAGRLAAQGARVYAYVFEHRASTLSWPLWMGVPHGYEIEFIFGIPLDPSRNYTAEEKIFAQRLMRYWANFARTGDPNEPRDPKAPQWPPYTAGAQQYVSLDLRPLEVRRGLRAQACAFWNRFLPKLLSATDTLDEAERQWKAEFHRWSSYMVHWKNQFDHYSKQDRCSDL
EXPERIMENT SUMMARY: Reversible inhibition of AChE, Ellman method, enzyme-inhibitor dissociation constants
STATED CONDITIONS: ± standard error; ATCh substrate, 25 °C, pH 7.4
REPORTED METRIC: pKi
Units for pKi: none; it is -log10 of a concentration expressed in mol/L.

COMPOUND	pKi
C=CC1C[N+]2(Cc3cccc(F)c3)CCC1C[C@@H]2[C@@H](O)c1ccnc2ccccc12 (some centres unmarked)	4.89
C=CC1C[N+]2(Cc3cc(F)cc(F)c3)CCC1C[C@@H]2[C@@H](O)c1ccnc2ccccc12 (some centres unmarked)	4.47
CCC1C[N+]2(Cc3cccc(C(F)(F)F)c3)CCC1C[C@@H]2[C@@H](O)c1ccnc2ccccc12 (some centres unmarked)	4.39

Using the record for C=CC1C[N+]2(Cc3c(F)cccc3Cl)CCC1C[C@@H]2[C@@H](O)c1ccnc2ccccc12 (some centres unmarked) , report its pKi.
4.77

Okay, and CCC1C[N+]2(Cc3cccc(OC(F)(F)F)c3)CCC1C[C@H]2[C@H](O)c1ccnc2ccccc12 (some centres unmarked) ?
4.44

Okay, and C=CC1C[N+]2(Cc3c(F)cccc3C(F)(F)F)CCC1C[C@@H]2[C@@H](O)c1ccnc2ccccc12 (some centres unmarked) ?
4.21

Okay, and C=CC1C[N+]2(Cc3ccc(F)c(F)c3)CCC1C[C@H]2[C@H](O)c1ccnc2ccccc12 (some centres unmarked) ?
4.89

Okay, and C=CC1C[N+]2(Cc3ccc(F)c(F)c3)CCC1C[C@@H]2[C@@H](O)c1ccnc2ccccc12 (some centres unmarked) ?
4.85

###

SYSTEM UNDER TEST: purified human BChE (Homo sapiens, UniProt P06276)
Sequence (P06276 29-602): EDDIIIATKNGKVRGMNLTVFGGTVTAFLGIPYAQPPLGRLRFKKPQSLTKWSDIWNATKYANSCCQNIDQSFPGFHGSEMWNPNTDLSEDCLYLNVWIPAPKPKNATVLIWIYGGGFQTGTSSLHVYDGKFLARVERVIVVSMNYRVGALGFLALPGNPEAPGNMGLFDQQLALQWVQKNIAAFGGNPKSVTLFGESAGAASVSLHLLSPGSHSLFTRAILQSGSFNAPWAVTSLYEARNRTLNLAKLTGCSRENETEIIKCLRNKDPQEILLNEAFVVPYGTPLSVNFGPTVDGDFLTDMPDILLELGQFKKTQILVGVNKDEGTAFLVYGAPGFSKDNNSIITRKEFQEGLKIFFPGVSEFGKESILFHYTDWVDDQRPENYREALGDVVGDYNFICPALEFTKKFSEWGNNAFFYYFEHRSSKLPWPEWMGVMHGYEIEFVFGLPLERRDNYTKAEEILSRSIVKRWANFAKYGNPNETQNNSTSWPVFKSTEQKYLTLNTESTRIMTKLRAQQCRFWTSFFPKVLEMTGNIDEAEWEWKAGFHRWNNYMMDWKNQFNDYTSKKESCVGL
EXPERIMENT SUMMARY: Reversible inhibition of BChE, Ellman method, enzyme-inhibitor dissociation constants
Format: biochemical
STATED CONDITIONS: ± standard error; ATCh substrate, 25 °C, pH 7.4
Entries annotated with measured pKi
Units for pKi: none; it is -log10 of a concentration expressed in mol/L.

MOLECULE	pKi
C=CC1C[N+]2(Cc3ccc(OC(F)(F)F)cc3)CCC1C[C@H]2[C@H](O)c1ccnc2ccccc12 (some centres unmarked)	5.12
CCC1C[N+]2(Cc3ccc(C(F)(F)F)cc3)CCC1C[C@H]2[C@H](O)c1ccnc2ccccc12 (some centres unmarked)	5.49

Using the record for C=CC1C[N+]2(Cc3ccc(C(F)(F)F)cc3)CCC1C[C@H]2[C@H](O)c1ccnc2ccccc12 (some centres unmarked) , report its pKi.
5.70

Okay, and CCC1C[N+]2(Cc3cccc(C(F)(F)F)c3)CCC1C[C@H]2[C@H](O)c1ccnc2ccccc12 (some centres unmarked) ?
5.85

Okay, and C=CC1C[N+]2(Cc3c(F)cccc3F)CCC1C[C@H]2[C@H](O)c1ccnc2ccccc12 (some centres unmarked) ?
5.00

###

SYSTEM UNDER TEST: purified human BChE (Homo sapiens, UniProt P06276)
EXPERIMENT SUMMARY: Reversible inhibition of BChE, Ellman method, enzyme-inhibitor dissociation constants
Assay type: biochemical
STATED CONDITIONS: ± standard error; ATCh substrate, 25 °C, pH 7.4
Entries annotated with measured pKi
Units for pKi: none; it is -log10 of a concentration expressed in mol/L.

COMPOUND	pKi
C=CC1C[N+]2(Cc3ccccc3F)CCC1C[C@H]2[C@H](O)c1ccnc2ccccc12 (stereo partly shown)	6.09
C=CC1C[N+]2(Cc3ccccc3)CCC1C[C@@H]2[C@@H](O)c1ccnc2ccccc12 (stereo partly shown)	5.54
CCC1C[N+]2(Cc3ccc(OC(F)(F)F)cc3)CCC1C[C@H]2[C@H](O)c1ccnc2ccccc12 (stereo partly shown)	5.23

// fetch purified human BChE (Homo sapiens, UniProt P06276) pKi for CCC1C[N+]2(Cc3ccc(OC(F)(F)F)cc3)CCC1C[C@@H]2[C@@H](O)c1ccnc2ccccc12 (stereo partly shown)
5.66
